Recorded values, source the Human Domainome abundance scans (Beltran et al. 2025).

Below: a set of entries, each annotated with reported abundance fitness.
B1: Glucocorticoid receptor, residues 419 to 494; numbered along this chain, P04150 (parent)
chain: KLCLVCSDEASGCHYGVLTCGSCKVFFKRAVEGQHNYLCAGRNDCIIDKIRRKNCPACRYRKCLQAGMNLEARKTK

Variants of: B1
assay explanation: abundance fitness (aPCA) (normalised: wild type 0, dead -1); higher = more abundant; growth selection in yeast, the domain comes from the species named
condition info: Homo sapiens
Answer with a number only.

Some entries whose results are on file:
>>> number("KLCLVCSDEASGCHYGVLTCGSCKVFFKRAVEGQHNYLCAGRNDCIIDKIRRKNCPACRYRKCLQAGQNLEARKTK [M68Q]")
-0.999
>>> number("KLCLVCSDEASGCHYGVLTCGSCKVFFKRAVVGQHNYLCAGRNDCIIDKIRRKNCPACRYRKCLQAGMNLEARKTK [E32V]")
-0.051
>>> number("KLCLVCSDEASGCHYGVLTCGSCKVFFKRQVEGQHNYLCAGRNDCIIDKIRRKNCPACRYRKCLQAGMNLEARKTK [A30Q]")
-0.192
>>> number("KLCLVCSDEASGCHYGVLTCGSCKVFFKRAVEGQHNYLCAGRNDCIIDKIRIKNCPACRYRKCLQAGMNLEARKTK [R52I]")
-0.093
>>> number("KLCLVCSDEASGCHYGVLTCGSCKVFFKRAVEGQHNYLCAGRNDCIIDKISRKNCPACRYRKCLQAGMNLEARKTK [R51S]")
-0.023
>>> number("KLCLVCSDEASGCHYGVLTCGSCKVFFKRAVEGQHNYLCAGRNVCIIDKIRRKNCPACRYRKCLQAGMNLEARKTK [D44V]")
-0.053
>>> number("KLCLVCSDEASGCHYGVLTCGSCKVFFKRAEEGQHNYLCAGRNDCIIDKIRRKNCPACRYRKCLQAGMNLEARKTK [V31E]")
-0.052
>>> number("KLCLVCSDEASGCHYGVLTCGSCKVFFKRAVEGQHNFLCAGRNDCIIDKIRRKNCPACRYRKCLQAGMNLEARKTK [Y37F]")
0.011

Query: So what's the measured abundance fitness for this one? KLCLVCSDEASGCHYGVLTCGSCKVFFKRAVEGQHNYLCAGRNDCIIDKWRRKNCPACRYRKCLQAGMNLEARKTK [I50W]
Result: -0.02

Query: So what's the measured abundance fitness for this one? KLCLVCSDEASGCHYGVLTCGSCKVFFKRAVEGQHNYLCAGRNDCIIDKIRRKNYPACRYRKCLQAGMNLEARKTK [C55Y]
Result: -0.66

Query: So what's the measured abundance fitness for this one? KLCLVGSDEASGCHYGVLTCGSCKVFFKRAVEGQHNYLCAGRNDCIIDKIRRKNCPACRYRKCLQAGMNLEARKTK [C6G]
Result: -0.934

Query: So what's the measured abundance fitness for this one? KLCLVCSDEASGQHYGVLTCGSCKVFFKRAVEGQHNYLCAGRNDCIIDKIRRKNCPACRYRKCLQAGMNLEARKTK [C13Q]
Result: 0.001

Query: So what's the measured abundance fitness for this one? KLCLVCSDEASGCHYGVLTCGSCKVFFKRAVEGQHNYLCAGRNDCIADKIRRKNCPACRYRKCLQAGMNLEARKTK [I47A]
Result: -0.368

Query: So what's the measured abundance fitness for this one? KLCLVWSDEASGCHYGVLTCGSCKVFFKRAVEGQHNYLCAGRNDCIIDKIRRKNCPACRYRKCLQAGMNLEARKTK [C6W]
Result: -1.03

Query: So what's the measured abundance fitness for this one? KLCLVCSDEASGCHYGVLTCGSCKVFFKRAVEGQHNYLCAGRNDCIIDKIRRKNCPACRYRKCLHAGMNLEARKTK [Q65H]
Result: 0.09

Query: So what's the measured abundance fitness for this one? KLCLVCSDEASGCHYGVLTCGSCKVFFKRAVEGQHNYLCAGRNDCIIDLIRRKNCPACRYRKCLQAGMNLEARKTK [K49L]
Result: -0.054

Query: So what's the measured abundance fitness for this one? KLCLVCSDEASGCHYGVLTCGSCKVFFKRAVEGQHNYLCAGRNDCIIDKARRKNCPACRYRKCLQAGMNLEARKTK [I50A]
Result: -0.004

Query: So what's the measured abundance fitness for this one? KLCLVCSDEASGCHYGVLTCGSCKVFFKRAVEGQHNYLCAGRNDCIIDKIRRKNCPACRYRKCLKAGMNLEARKTK [Q65K]
Result: -0.052

Query: So what's the measured abundance fitness for this one? KLCLVCSDEASGCHYGVLTCGSCKVFFKDAVEGQHNYLCAGRNDCIIDKIRRKNCPACRYRKCLQAGMNLEARKTK [R29D]
Result: 0.02

Query: So what's the measured abundance fitness for this one? KLCLVCSDEASGCHYGVLTCGSCKVFFKRAVEGQHNYLCAGRNDCIIDKIRRKNCPACRYRKDLQAGMNLEARKTK [C63D]
Result: -0.915
